assay text: 384-well plate pilot, post-Golgi transport modulator project, inhibition of yeast transport mutant growth (AID 636)
assay conditions: absorbance 615 nm, about 18 h, stronger effect = higher value
outcome measure: inhibition (%)
Answers are plain numbers, in %.

[[record]]
compound = "CCCOc1ccccc1NC(=O)c1c(-c2ccccc2)noc1C"
readout_units = "%"
reading = 1.67

[[record]]
compound = "CCOC(=O)c1c(C)[nH]c(C(=O)COC(=O)C2CC2C)c1C (configuration not stated)"
readout_units = "%"
reading = -4.93

[[record]]
compound = "O=C(O)c1c(Cl)c(Cl)c(Cl)c(Cl)c1C(=O)N1CCOCC1"
readout_units = "%"
reading = -5.97

[[record]]
compound = "O=C(c1cccc(Cl)c1)N1CCN(Cc2ccncc2)CC1"
readout_units = "%"
reading = -0.27

[[record]]
compound = "CC(C)c1cc(C(=O)NCc2ccco2)no1"
readout_units = "%"
reading = 0.13

[[record]]
compound = "CCN1CCCC1CN=Cc1c(O)n(-c2ccccc2)c(=O)c2ccccc12 (configuration not stated)"
readout_units = "%"
reading = -6.89


Please find the next compound below.
### Prompt Name the reported inhibition value associated with the compound O=C(O)CCc1ccc(-c2ccc(F)cc2)n1CC(=O)O
### Response -7.12

###

assay text: reversal of MRP1-mediated doxorubicin resistance, pilot screen, H69AR cells, doxorubicin co-treatment (AID 601)
assay conditions: H69AR cells, CellTiter-Glo, 72 h; compound alone cytotoxicity; at 10 µM
Consider the following molecules; for each one, report its viability.
Numbers only, in %.

Example entries begin here.
[[record]]
molecule = "N#Cc1c(N)n(CCNC(=O)c2cccs2)c2nc3ccccc3nc12"
outcome_measure = "viability"
reading = 90.9

[[record]]
molecule = "CCOc1cc(CN2CCN(C(=O)c3ccco3)CC2)ccc1OC"
outcome_measure = "viability"
reading = 89.5

[[record]]
molecule = "c1ccc2c(c1)[nH]c1c(N3CCC4(CC3)OCCO4)ncnc12"
outcome_measure = "viability"
reading = 92.2

[[record]]
molecule = "Cc1ccc(S(=O)(=O)N2CCOCC2)cc1C(=O)OCC(=O)N1CCc2ccccc2C1"
outcome_measure = "viability"
reading = 87.9

[[record]]
molecule = "CCn1c(COc2cccc3ccccc23)nnc1SCC(N)=O"
outcome_measure = "viability"
reading = 91.1

[[record]]
molecule = "c1ccc(N=P(c2nc3ccccc3o2)(N2CCOCC2)N2CCOCC2)cc1"
outcome_measure = "viability"
reading = 91.4

[[record]]
molecule = "CCC(=O)N1Cc2ccccc2-c2ccccc2C1=O"
outcome_measure = "viability"
reading = 90

[[record]]
molecule = "COc1ccc2oc(=O)c(C(=O)N3CCN(c4ccccc4F)CC3)cc2c1"
outcome_measure = "viability"
reading = 88.1

[[record]]
molecule = "Cc1sc2ncn3ncnc3c2c1C"
outcome_measure = "viability"
reading = 90.5

[[record]]
molecule = "COc1cccc(C(=O)n2cnnc2N)c1OC"
outcome_measure = "viability"
reading = 89.9


Hi team, please reply with viability for each item in this list.
1. COc1ccc(S(=O)(=O)N2CCCC(C(=O)N3CCCCCC3)C2)cc1 (configuration not stated)
2. c1cn(C23CC4CC(CC(C4)C2)C3)cn1
3. CNS(=O)(=O)c1cccc(C(=O)OCC(=O)c2cc(C)n(-c3ccc4c(c3)OCO4)c2C)c1
4. CC1=CCC2C(=O)N(c3nc(C)cc(C)n3)C(=O)C2C1 (configuration not stated)

### Response
[88.2, 92.3, 88.4, 91.1]
